Target: FXR ligand binding domain (Homo sapiens, UniProt Q96RI1)
Construct: expressed in transfected cells; host or cells: HEK293 (DSMZ), transient transfection with a pCMV-BD construct
Sequence (Q96RI1 187-472 isoform Q96RI1-2): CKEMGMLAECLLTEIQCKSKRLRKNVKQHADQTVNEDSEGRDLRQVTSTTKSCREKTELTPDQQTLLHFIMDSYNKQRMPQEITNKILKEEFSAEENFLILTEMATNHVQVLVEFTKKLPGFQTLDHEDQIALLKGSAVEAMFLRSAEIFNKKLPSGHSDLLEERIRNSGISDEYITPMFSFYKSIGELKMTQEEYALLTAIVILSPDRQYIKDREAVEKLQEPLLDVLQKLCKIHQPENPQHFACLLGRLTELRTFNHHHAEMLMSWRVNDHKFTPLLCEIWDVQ
Assay: Mammalian One Hybrid (M1H) assay, Gal4 reporter in HEK293 cells
Assay type: cell-based
Settings: Gal4-FXR LBD transactivation, HEK293 cells; read-out: EC50 potency range (Group), M1H assay
# Lookup of reported EC50 keyed by entry

Examples with answers:
| compound | test system | EC50 |
| --- | --- | --- |
| O=C(O)c1cccc([C@H]2C[C@](O)(c3ccc(OCc4c(-c5c(Cl)cccc5Cl)noc4C4CC4)cc3Cl)C2)c1 | FXR ligand binding domain (Homo sapiens, UniProt Q96RI1) | 25 to 100 nM |
| O=C(O)c1cccc(N2CC(O)(c3ccc(OCc4c(-c5c(Cl)cccc5Cl)noc4C4CC4)cc3Cl)C2)c1 (single isomer, unassigned) | FXR ligand binding domain (Homo sapiens, UniProt Q96RI1) | 25 to 100 nM |
| Cc1ccc(C2CC(O)(c3ccc(OCc4c(-c5c(Cl)cccc5Cl)noc4C4CC4)cc3Cl)C2)cc1C(=O)O (single isomer, unassigned) | FXR ligand binding domain (Homo sapiens, UniProt Q96RI1) | < 25 nM |
| NS(=O)(=O)c1cccc(C2CC(O)(c3ccc(OCc4c(-c5c(Cl)cccc5Cl)noc4C4CC4)cc3Cl)C2)c1 (centres unmarked) | FXR ligand binding domain (Homo sapiens, UniProt Q96RI1) | > 100 nM |

Input line: Entry under review: CC(C)n1nc(C(=O)O)cc1[C@H]1C[C@](O)(c2ccc(OCc3c(-c4c(Cl)cccc4Cl)noc3C3CC3)cc2Cl)C1 . Reported EC50?
Output line: 25 to 100 nM
